# Experimental Target: Bcr/Abl fusion protein (Homo sapiens) (UniProt P00519+P11274)
# Sequence (P00519 whole entry, looked up, the tested form may be a part): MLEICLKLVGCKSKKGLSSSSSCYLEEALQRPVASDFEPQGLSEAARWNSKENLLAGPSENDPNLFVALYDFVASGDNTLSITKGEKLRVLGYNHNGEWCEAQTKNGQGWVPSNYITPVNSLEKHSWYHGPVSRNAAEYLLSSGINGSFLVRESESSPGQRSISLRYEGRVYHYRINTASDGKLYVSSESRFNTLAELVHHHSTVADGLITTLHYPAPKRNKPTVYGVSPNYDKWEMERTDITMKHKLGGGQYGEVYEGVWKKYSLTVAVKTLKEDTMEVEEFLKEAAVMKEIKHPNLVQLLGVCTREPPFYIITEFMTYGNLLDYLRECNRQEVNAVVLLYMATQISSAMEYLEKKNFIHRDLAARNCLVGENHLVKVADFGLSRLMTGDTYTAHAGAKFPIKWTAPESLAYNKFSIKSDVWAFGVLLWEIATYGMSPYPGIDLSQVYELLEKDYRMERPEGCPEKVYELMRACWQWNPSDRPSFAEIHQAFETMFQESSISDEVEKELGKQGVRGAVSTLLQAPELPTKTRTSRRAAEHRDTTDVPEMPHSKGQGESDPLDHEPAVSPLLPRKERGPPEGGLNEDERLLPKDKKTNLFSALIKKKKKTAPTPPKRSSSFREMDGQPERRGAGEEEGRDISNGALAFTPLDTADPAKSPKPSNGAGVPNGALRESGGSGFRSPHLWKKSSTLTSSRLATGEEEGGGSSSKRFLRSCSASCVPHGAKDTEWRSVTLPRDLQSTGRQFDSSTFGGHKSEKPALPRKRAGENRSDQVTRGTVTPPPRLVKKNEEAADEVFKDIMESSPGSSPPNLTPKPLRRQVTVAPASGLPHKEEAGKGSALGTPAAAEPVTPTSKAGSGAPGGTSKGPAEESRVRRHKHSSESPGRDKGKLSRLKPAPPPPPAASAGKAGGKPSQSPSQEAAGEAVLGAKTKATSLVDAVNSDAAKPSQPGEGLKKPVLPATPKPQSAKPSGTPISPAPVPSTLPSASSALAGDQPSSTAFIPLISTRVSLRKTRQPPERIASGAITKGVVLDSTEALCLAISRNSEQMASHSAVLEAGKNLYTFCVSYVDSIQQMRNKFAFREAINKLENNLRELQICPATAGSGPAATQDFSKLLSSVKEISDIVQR
# Sequence (P11274 whole entry, looked up, the tested form may be a part): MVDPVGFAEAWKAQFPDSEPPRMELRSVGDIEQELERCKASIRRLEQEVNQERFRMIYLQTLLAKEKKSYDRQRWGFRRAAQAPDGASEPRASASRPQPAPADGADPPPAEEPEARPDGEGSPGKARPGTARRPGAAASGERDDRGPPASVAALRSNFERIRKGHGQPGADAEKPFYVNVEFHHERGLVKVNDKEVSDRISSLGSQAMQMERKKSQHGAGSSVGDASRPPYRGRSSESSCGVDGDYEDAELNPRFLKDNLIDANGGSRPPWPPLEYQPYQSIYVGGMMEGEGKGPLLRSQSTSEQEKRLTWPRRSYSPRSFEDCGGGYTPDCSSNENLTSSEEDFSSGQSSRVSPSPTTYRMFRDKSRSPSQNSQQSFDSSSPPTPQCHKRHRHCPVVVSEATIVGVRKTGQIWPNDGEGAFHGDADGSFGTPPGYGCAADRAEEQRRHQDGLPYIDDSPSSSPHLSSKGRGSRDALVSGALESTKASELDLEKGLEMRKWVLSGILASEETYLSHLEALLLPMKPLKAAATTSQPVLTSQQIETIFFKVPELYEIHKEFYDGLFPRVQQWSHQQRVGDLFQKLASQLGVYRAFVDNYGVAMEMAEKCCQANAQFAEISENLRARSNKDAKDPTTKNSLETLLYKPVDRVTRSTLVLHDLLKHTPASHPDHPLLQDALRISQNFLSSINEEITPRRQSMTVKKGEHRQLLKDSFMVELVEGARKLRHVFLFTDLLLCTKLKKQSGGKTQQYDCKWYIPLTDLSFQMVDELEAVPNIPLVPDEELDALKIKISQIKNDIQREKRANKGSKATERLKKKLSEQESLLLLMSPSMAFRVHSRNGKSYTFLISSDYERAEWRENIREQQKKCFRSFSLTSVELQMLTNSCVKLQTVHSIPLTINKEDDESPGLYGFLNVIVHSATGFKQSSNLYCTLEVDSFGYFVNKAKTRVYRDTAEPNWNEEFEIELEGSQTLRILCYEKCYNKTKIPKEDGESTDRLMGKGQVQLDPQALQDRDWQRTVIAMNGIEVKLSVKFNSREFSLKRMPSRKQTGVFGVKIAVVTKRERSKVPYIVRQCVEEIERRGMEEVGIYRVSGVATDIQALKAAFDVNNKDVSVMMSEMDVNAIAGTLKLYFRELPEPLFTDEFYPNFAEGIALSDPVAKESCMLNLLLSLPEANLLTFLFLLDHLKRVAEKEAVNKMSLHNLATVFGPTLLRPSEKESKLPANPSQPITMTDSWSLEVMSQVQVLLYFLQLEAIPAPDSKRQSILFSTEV
# Method Description: Vmax/Km value for peptide phosphorylation by Bcr-Abl protein tyrosine kinase
# Format: protein assay
Peptide text beside a SMILES is read from it.
Property: Vmax / Km (10^-9 L min-1)

INSERT INTO results (molecule, experimental_target, endpoint_value) VALUES
  ('CC[C@H](C)[C@H](NC(=O)[C@H](CCC(=O)O)NC(=O)[C@@H](N)CCC(=O)O)C(=O)N[C@@H](Cc1ccc(O)cc1)C(=O)N[C@@H](CC(=O)O)C(=O)N[C@@H](Cc1ccc(O)cc1)C(=O)N[C@@H](C)C(=O)N[C@@H](Cc1ccc(O)cc1)C(=O)O (H-EEIYDYAY-OH)', 'Bcr/Abl fusion protein (Homo sapiens) (UniProt P00519+P11274)', 56.4);
